Quick reference for microsomal CLint at 1 μM among some compounds
- test.name: Microsomal stability assay, mouse liver microsomes
- Type: in vitro ADME
- condition.label: mouse, liver microsomes, pH 7.4, mouse liver microsomes, 1 μM compound, 0.5 mg/mL protein, 37° C.; read-out: MLM +30/− NADPH: Clint (μL/min/mg protein)

Known results for compounds:
INSERT INTO measurements (smiles_repr, reading) VALUES
  ('CC(C)(c1ccc(OCc2ncc(S(C)(=O)=O)s2)cc1)c1cc(Cl)c(OCCCl)c(C#N)c1', '< 12 µL/min/mg'),
  ('Cc1nc(COc2ccc(C(C)(C)c3cc(Cl)c(OCCCl)c(C#N)c3)cc2)cc(NS(C)(=O)=O)n1', '12 to 48 µL/min/mg'),
  ('CC(=O)Nc1nc(COc2ccc(C(C)(C)c3cc(Cl)c(OCCCl)c(C#N)c3)cc2)co1', '≥ 48 µL/min/mg'),
  ('CC(C)(c1ccc(OCc2ccnc(S(C)(=O)=O)n2)cc1)c1cc(Cl)c(OCCCl)c(C#N)c1', '≥ 48 µL/min/mg'),
  ('CC(C)(c1ccc(OCc2csc(NS(C)(=O)=O)n2)cc1)c1cc(Cl)c(OCCCl)c(C#N)c1', '< 12 µL/min/mg');

Q: Request the reported microsomal CLint at 1 μM associated with `CC(C)S(=O)(=O)c1nc(COc2ccc(C(C)(C)c3cc(Cl)c(OCCCl)c(C#N)c3)cc2)co1`
Ans: ≥ 48 µL/min/mg

Q: Request the reported microsomal CLint at 1 μM associated with `CN1C(=O)N(Cc2ccc(C(C)(C)c3cc(Cl)c(OCCCCl)c(Cl)c3)cc2)C(=O)C1(C)C`
Ans: ≥ 48 µL/min/mg
